# System: 922993-354-T-J3-PDC complex spheroids, viability, % test/control;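 note: spheroids exposed to the agents for 7 days before readout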
# MEASUREMENT_PROTOCOL: Anticancer human tumor 922993-354-T-J3-PDC patient-derived endometrial carcinoma cell line growth inhibition [CLK]
# CONDITION_NOTES: second compound 0.316 µM; first compound 10 µM; stronger effect = lower value
API: label(entry) gives Satisfied if the entry's viability, T/C is strictly smaller than 20%; on equality or larger values it gives Not satisfied.

These recorded examples may help you get a feel for the data.
[[record]]
molecule = "COC1C=CCC(C)C(C)S(=O)(=O)NC(=O)c2ccc3c(c2)N(CC2CCC21)CC1(CCCc2cc(Cl)ccc21)CO3 (stereo unspecified) + CNC(=O)c1ccc(Nc2nc(OC3CCCC3)c3c(-c4ccc5nc(C)oc5c4)c[nH]c3n2)c(OC)c1"
system_name = "922993-354-T-J3-PDC complex spheroids, viability, % test/control"
answer_label = "Satisfied"

[[record]]
molecule = "O=c1[nH]cc(F)c(=O)[nH]1 + CN1CCN(c2cc(C(=O)Nc3cc4cc(-c5cnn(C)c5)ccc4cn3)ccn2)CC1"
system_name = "922993-354-T-J3-PDC complex spheroids, viability, % test/control"
answer_label = "Not satisfied"

[[record]]
molecule = "C=CC(=O)N1CCN(c2nc(=O)n(-c3c(C)ccnc3C(C)C)c3nc(-c4c(O)cccc4F)c(F)cc23)C(C)C1 (stereo unspecified) + CNC(=O)c1ccc(Nc2nc(OC3CCCC3)c3c(-c4ccc5nc(C)oc5c4)c[nH]c3n2)c(OC)c1"
system_name = "922993-354-T-J3-PDC complex spheroids, viability, % test/control"
answer_label = "Not satisfied"

[[record]]
molecule = "CC1(C)CCC(CN2CCN(c3ccc(C(=O)NS(=O)(=O)c4ccc(NCC5CCOCC5)c([N+](=O)[O-])c4)c(Oc4cnc5[nH]ccc5c4)c3)CC2)=C(c2ccc(Cl)cc2)C1 + CN1CCN(c2cc(C(=O)Nc3cc4cc(-c5cnn(C)c5)ccc4cn3)ccn2)CC1"
system_name = "922993-354-T-J3-PDC complex spheroids, viability, % test/control"
answer_label = "Satisfied"

[[record]]
molecule = "CC(=O)O[C@H]1C(=O)[C@@]2(C)[C@H]([C@H](OC(=O)c3ccccc3)[C@]3(O)C[C@H](OC(=O)[C@H](O)[C@@H](NC(=O)c4ccccc4)c4ccccc4)C(C)=C1C3(C)C)[C@]1(OC(C)=O)CO[C@@H]1C[C@@H]2O + CN1CCN(c2cc(C(=O)Nc3cc4cc(-c5cnn(C)c5)ccc4cn3)ccn2)CC1"
system_name = "922993-354-T-J3-PDC complex spheroids, viability, % test/control"
answer_label = "Satisfied"

[[record]]
molecule = "Nc1ccn(C2OC(CO)C(O)C2(F)F)c(=O)n1 (stereo unspecified) + CNC(=O)c1ccc(Nc2nc(OC3CCCC3)c3c(-c4ccc5nc(C)oc5c4)c[nH]c3n2)c(OC)c1"
system_name = "922993-354-T-J3-PDC complex spheroids, viability, % test/control"
answer_label = "Satisfied"


Req: Criterion: viability, T/C strictly below 20%. Is it met by CC(=O)O[C@H]1C(=O)[C@@]2(C)[C@H]([C@H](OC(=O)c3ccccc3)[C@]3(O)C[C@H](OC(=O)[C@H](O)[C@@H](NC(=O)c4ccccc4)c4ccccc4)C(C)=C1C3(C)C)[C@]1(OC(C)=O)CO[C@@H]1C[C@@H]2O + CNC(=O)c1ccc(Nc2nc(OC3CCCC3)c3c(-c4ccc5nc(C)oc5c4)c[nH]c3n2)c(OC)c1 ?
Resp: Not satisfied

Req: Criterion: viability, T/C strictly below 20%. Is it met by COc1ccc([C@@H](O)c2cc(-c3ncnc4cc(N5CCOCC5)ccc34)c(F)cc2Cl)nn1 + CNC(=O)c1ccc(Nc2nc(OC3CCCC3)c3c(-c4ccc5nc(C)oc5c4)c[nH]c3n2)c(OC)c1 ?
Resp: Not satisfied

Req: Criterion: viability, T/C strictly below 20%. Is it met by C#Cc1c(F)ccc2cc(O)cc(-c3ncc4c(N5CC6CCC(C5)N6)nc(OCC56CCCN5CC(F)C6)nc4c3F)c12 (stereo unspecified) + CNC(=O)c1ccc(Nc2nc(OC3CCCC3)c3c(-c4ccc5nc(C)oc5c4)c[nH]c3n2)c(OC)c1 ?
Resp: Not satisfied

Req: Criterion: viability, T/C strictly below 20%. Is it met by O=C(c1cc(Cc2n[nH]c(=O)c3ccccc23)ccc1F)N1CCN(C(=O)C2CC2)CC1 + CNC(=O)c1ccc(Nc2nc(OC3CCCC3)c3c(-c4ccc5nc(C)oc5c4)c[nH]c3n2)c(OC)c1 ?
Resp: Not satisfied

Req: Criterion: viability, T/C strictly below 20%. Is it met by CCCS(=O)(=O)Nc1ccc(F)c(C(=O)c2c[nH]c3ncc(-c4ccc(Cl)cc4)cc23)c1F + CN1CCN(c2cc(C(=O)Nc3cc4cc(-c5cnn(C)c5)ccc4cn3)ccn2)CC1 ?
Resp: Not satisfied
